# TGT: nicotinic cholinergic receptor (Rattus norvegicus, UniProt P09483+P12390)
# Construct: A membrane fraction from rat brain cortex; tissue Harlan Laboratories; host or cells: rat brain cortex membranes
# ASSAY PROCEDURE: Competition with [3H](-)-cytisine for binding to rat cortex (brain) receptors (Tables 7, 8, 9)
# STUDY CONDITIONS: Table 7, rat brain cortex membranes; read-out: Nicotine Receptor Cytisine IC50
Property: IC50; scope: individual compounds

[
  {
    "COMPOUND": "Cc1nnc([C@@H]2C[C@H]3CC[C@@H]2N3C)o1 (relative stereo)",
    "IC50 / µM": 0.15
  },
  {
    "COMPOUND": "Cc1nnc([C@H]2C[C@H]3CC[C@@H]2N3C)o1 (relative stereo)",
    "IC50 / µM": 32
  }
]

---

# TGT: acetylcholine nicotinic receptor (Rattus norvegicus, UniProt P09483+P12390)
# Construct: rat cortex as the tissue substrate; from tissue; host or cells: rat cortex
# ASSAY PROCEDURE: Nicotinic receptor binding, [3H]-NMCI radioligand, rat cortex (Table 6)
# STUDY CONDITIONS: testing level 10^-9

[
  {
    "COMPOUND": "CN1C2CCC1C(c1ccc(Cl)nc1)C2 (centres unmarked)",
    "TGT": "acetylcholine nicotinic receptor (Rattus norvegicus, UniProt P09483+P12390)",
    "OUTPUT UNIT": "%",
    "Inhibition %": 22
  },
  {
    "COMPOUND": "N=CN1C2CCC1C(c1ccc(Cl)nc1)C2 (centres unmarked)",
    "TGT": "acetylcholine nicotinic receptor (Rattus norvegicus, UniProt P09483+P12390)",
    "OUTPUT UNIT": "%",
    "Inhibition %": 49
  },
  {
    "COMPOUND": "N=CN1C2CCC1C(c1cccnc1)C2 (centres unmarked)",
    "TGT": "acetylcholine nicotinic receptor (Rattus norvegicus, UniProt P09483+P12390)",
    "OUTPUT UNIT": "%",
    "Inhibition %": 5
  },
  {
    "COMPOUND": "c1cncc(C2CC3CCC2N3)c1 (centres unmarked)",
    "TGT": "acetylcholine nicotinic receptor (Rattus norvegicus, UniProt P09483+P12390)",
    "OUTPUT UNIT": "%",
    "Inhibition %": 103
  },
  {
    "COMPOUND": "C[N+]1(C)C2CCC1C(c1ccc(Cl)nc1)C2 (centres unmarked)",
    "TGT": "acetylcholine nicotinic receptor (Rattus norvegicus, UniProt P09483+P12390)",
    "OUTPUT UNIT": "%",
    "Inhibition %": 49
  }
]

---

Property: IC50; scope: individual compounds
# TGT: nicotinic cholinergic receptor (Rattus norvegicus, UniProt P09483+P12390)
# Construct: A membrane fraction from rat brain cortex; tissue Harlan Laboratories; host or cells: rat brain cortex membranes
# ASSAY PROCEDURE: Competition with [3H](-)-cytisine for binding to rat cortex (brain) receptors (Tables 7, 8, 9)
# STUDY CONDITIONS: Table 9; read-out: rat brain, 3H-cytisine binding IC50
READOUT LABEL: IC50 (nM)

[
  {
    "COMPOUND": "Cc1noc([C@@H]2C[C@H]3CC[C@@H]2N3C)n1 (single isomer, unassigned) [A]",
    "RESULT NUMBER": 1400
  },
  {
    "COMPOUND": "Cc1noc([C@@H]2C[C@H]3CC[C@@H]2N3C)n1 (relative stereo) [racemic A/B]",
    "RESULT NUMBER": 100
  },
  {
    "COMPOUND": "Cc1noc([C@@H]2C[C@H]3CC[C@@H]2N3C)n1 (single isomer, unassigned) [B]",
    "RESULT NUMBER": 18
  }
]
